Exercise: for every item that follows, state its recorded inhibition at 1 µM.
subject.of.test: aldose reductase (Bos taurus)
Construct: preparation of the enzyme from bovine lens; from tissue; host or cells: bovine lens
assay.name: Aldose reductase inhibition in vitro (enzyme preparation from bovine lens, modified Hayman and Kinoshita procedure)
Type: biochemical
test.context: 10^-6 M; read-out: % Inhibition IN VITRO
Numbers only, in %.

Below, each entry is followed by its recorded inhibition at 1 µM result.
compound: COc1ccc2c(C(=O)N(CC(=O)O)C(=O)OCc3ccccc3)cccc2c1C(F)(F)F
subject.of.test: aldose reductase (Bos taurus)
test.value: 89
--
compound: COc1ccc2c(C(=O)N(CC(=O)O)C(=O)OCC(C)(C)C)cccc2c1C(F)(F)F
subject.of.test: aldose reductase (Bos taurus)
test.value: 64

Pending compound:
Fill blank: measured inhibition at 1 µM of the compound COC(=O)N(CC(=O)O)C(=S)c1cccc2c(C(F)(F)F)c(OC)ccc12 [Example 18a] is ____.
88

* * *

Exercise: for every item that follows, state its recorded inhibition at 10 µM.
subject.of.test: aldose reductase (Bos taurus)
Construct: preparation of the enzyme from bovine lens; from tissue; host or cells: bovine lens
assay.name: Aldose reductase inhibition in vitro (enzyme preparation from bovine lens, modified Hayman and Kinoshita procedure)
Type: biochemical
test.context: 10^-5 M; read-out: % Inhibition IN VITRO
Write the figure, then the unit, nothing else.

smi: COc1ccc2c(C(=O)N(CC(=O)O)C(=O)OCc3ccccc3)cccc2c1C(F)(F)F
subject.of.test: aldose reductase (Bos taurus)
quantity.measured: inhibition at 10 µM
test.value: 95%

smi: COc1ccc2c(C(=O)N(CC(=O)O)C(=O)c3ccccc3)cccc2c1C(F)(F)F
subject.of.test: aldose reductase (Bos taurus)
quantity.measured: inhibition at 10 µM
test.value: 90%

smi: COC(=O)N(CC(=O)O)C(=O)c1cccc2c(Br)cccc12
subject.of.test: aldose reductase (Bos taurus)
quantity.measured: inhibition at 10 µM
test.value: 85%

smi: CC(=O)N(CC(=O)O)C(=O)c1cccc2c(Br)cccc12
subject.of.test: aldose reductase (Bos taurus)
quantity.measured: inhibition at 10 µM
test.value: 82%

Respectfully, I request inhibition at 10 µM for each entry included below.
1. O=C(O)CN(C(=O)c1ccccc1)C(=O)c1cccc2c(Br)cccc12
2. O=CN(CC(=O)O)C(=O)c1cccc2c(Br)cccc12
3. COc1ccc2c(C(=O)N(C=O)CC(=O)O)cccc2c1C(F)(F)F

1: 83%; 2: 90%; 3: 95%

Value source: patent US4843062A
